Catalogue of compounds with associated growth
system: SK-OV-3 ovarian; experiment: NCI-60 one-dose screen, 48 h (100 = growth as untreated, 0 = no growth, -100 = all killed); settings: 10 µM unless noted
About 83,000 compounds went through this panel and 20% of them were active in at least one assay; those are over-represented in the sample as a whole.

| Compound | Target Or System | growth [%] |
| --- | --- | --- |
| CC(=O)c1ccc(Cc2ccc(C(C)=O)s2)s1 | SK-OV-3 ovarian | 109 |
| CN(C)CCNc1cc(-c2ccccc2)nc2ccccc12 | SK-OV-3 ovarian | 36.4 |
| O=C1NC(=O)C(=Cc2cn(Cc3cn(Cc4ccc(Cl)cc4Cl)nn3)c3ccccc23)C(=O)N1 | SK-OV-3 ovarian | 69 |
| Cc1ccc(OCCCCCCNCCO)c(C)c1 | SK-OV-3 ovarian | 16.8 |
| Cc1ccc(C)c(-c2csc(Nc3ccc(C)c(C)c3)n2)c1 | SK-OV-3 ovarian | 77.8 |
| O=C1C(=O)c2c(ccc3ccccc23)-c2ccccc21 | SK-OV-3 ovarian | 91.5 |
| COc1cc(C2C3=C(COC3=O)N(CCO)c3cc4c(cc32)CCC4)cc(OC)c1O (configuration not stated) | SK-OV-3 ovarian | 37.7 |
| FC(F)(F)c1cccc(Nc2nc(-c3ccccc3)nc3ncccc23)c1 | SK-OV-3 ovarian | 90.2 |
| CSc1nc2c(c(=O)n1C)N=C1c3ccccc3C(=O)C1C(c1ccccc1)N2 (configuration not stated) | SK-OV-3 ovarian | 72.4 |
| O=C(Nc1ccc(F)cc1F)c1cc(Cl)ccc1O | SK-OV-3 ovarian | -11.2 |
| CCN(CC)CCNC(=O)C(Cl)=C1C(Cl)=C(Cl)C(Cl)=C1Cl | SK-OV-3 ovarian | 58.7 |
| COc1cc(C2C3=C(COC3=O)N(CCO)c3cc4c(cc32)OCCO4)cc(OC)c1O (configuration not stated) | SK-OV-3 ovarian | 24.5 |
| COc1ccc(C2c3ccc4ccccc4c3Oc3ncn(CCCn4ccnc4)c(=N)c32)cc1OC (configuration not stated) | SK-OV-3 ovarian | 76.1 |
| COc1ccc(-c2nc(N3CCN(C(=O)C4CCCCC4)CC3)c3c4c(sc3n2)CCCC4)cc1 | SK-OV-3 ovarian | 81 |
| Nc1ccc(-c2nc3cc(Oc4ccc(Oc5ccc6[nH]c(-c7ccc(N)cc7)nc6c5)cc4)ccc3[nH]2)cc1 | SK-OV-3 ovarian | 98.7 |
| Cc1nn(-c2nc3ccccc3[nH]2)c2c1C(c1ccc(OCC(N)=O)cc1)CC(=O)N2 (configuration not stated) | SK-OV-3 ovarian | 106 |
| Cc1ccc(NCCNCC(O)CO)c2c(=O)c3ccccc3sc12 (configuration not stated) | SK-OV-3 ovarian | 31.8 |

---

system: COLO 205 colon; test: NCI-60 one-dose screen, 48 h (100 = growth as untreated, 0 = no growth, -100 = all killed); settings: 10 µM unless noted
The panel holds about 83,000 compounds, 20% with a hit somewhere; the sample as a whole holds those more often. The source made the active and inactive calls. Rule for the calls: active = growth percent below 10; inactive = the rest.
Catalogue of molecules with associated growth

| Molecule | growth |
| --- | --- |
| COCCN(C(=O)Cc1cccs1)C(C(=O)NCc1ccc(OC)cc1)c1ccc(C(C)C)cc1 (stereo not drawn) | 104% (inactive) |
| O=C(NC1CCN(Cc2ccccc2)CC1)c1cc2nc(-c3ccc(Cl)s3)cc(C(F)(F)F)n2n1 | -48.6% (active) |
| CC(=O)Nc1nc2c(s1)CCc1c-2cn(S(=O)(=O)c2ccccc2)c1-c1ccccc1 | 75.3% (inactive) |
| Nc1n[nH]c2ccc([C@@H]3Nc4ccc5[nH]ncc5c4[C@H]4[C@H]5CCC(C5)[C@H]43)cc12 | 0.265% (active) |
| CCCCC1COc2cccc3c2N1C=C/C3=C\C(=O)N(C)c1ccccc1 (stereo not drawn) | 72.9% (inactive) |
| CCCCCCc1cc2cc(-c3nc4ccccc4[nH]3)c(=Nc3ccccc3C)oc2cc1O | -94.3% (active) |
| CC(=O)c1ccc(Cc2ccc(C(C)=O)s2)s1 | 119% (inactive) |
| CCN(CC)CCNC(=O)C(Cl)=C1C(Cl)=C(Cl)C(Cl)=C1Cl | 54.5% (inactive) |
| O=S1(=O)N(Cc2ccccc2)[C@@H](Cc2ccccc2)C2O[C@H]2[C@H](Cc2ccccc2)N1Cc1ccccc1 (stereo partly drawn) | 61.8% (inactive) |
| COc1ccc(C2NCCc3c2[nH]c2ccccc32)cc1CN1CCN(c2ccc(F)cc2)CC1 (stereo not drawn) | 47.6% (inactive) |
| CN1C(=O)N(C)C2C1NN=c1s/c(=C\c3c[nH]c4ccccc34)c(=O)n12 (stereo not drawn) | -53.4% (active) |
| COc1ccc(Br)c(/C=C2\SC(=Nc3ccc(O)cc3)NC2=O)c1 | 102% (inactive) |
| O=c1[nH]nnc2c1ncn2C1OC(CO)C(O)C1O (stereo not drawn) | 34.4% (inactive) |
